Biological target: Chymase (Homo sapiens)
Test: Inhibition of human chymase assessed as residual enzyme activity using chromogenic N-succinyl-Ala-Ala-Pro-Phe p-nitroanilide as substrate at 10 uM pre-incubated for 10 mins by spectrophotometry relative to untreated control
Type: single protein
Form field: Ratio (one value per entry).
The response must contain the number and no unit.

# test-smiles, recorded-number
data = [
    ("O=S(=O)(/C=C/c1cccc(Cl)c1)Nc1cccc(OCc2cn(Cc3cccnc3)nn2)c1", 0.98),
]

Next compound, please.
Ratio lookup needed for O=S(=O)(/C=C/c1cccc(F)c1)Nc1cccc(OCc2cn(Cc3cccnc3)nn2)c1 , thanks.
0.99

----------
Form field: Ratio (one value per entry).
Species on record: Homo sapiens
Assay: Inhibition of human tryptase assessed as residual enzyme activity using chromogenic H-D-HHT-Ala-Arg-pNA 2AcOH as substrate at 10 uM pre-incubated for 10 mins measured for 30 mins by spectrophotometry relative to untreated control
The response must contain the number and no unit.

A selection of reference data follows.
# test-smiles, recorded-number
data = [
    ("Nc1cccc(/C=C/S(=O)(=O)Nc2cccc(OCc3cn(Cc4cc5ccccc5s4)nn3)c2)c1", 0.99),
    ("Cc1cccc(/C=C/S(=O)(=O)Nc2cccc(-c3nnn(Cc4cccc(Cl)c4)n3)c2)c1", 1),
    ("O=S(=O)(/C=C/c1cccc(C(F)(F)F)c1)Nc1cccc(OCc2cn(Cc3cc4ccccc4s3)nn2)c1", 0.97),
    ("O=S(=O)(/C=C/c1cccc(Cl)c1)Nc1cccc(OCc2cn(Cc3cc4ccccc4[nH]3)nn2)c1", 0.99),
    ("O=[N+]([O-])c1cccc(/C=C/S(=O)(=O)Nc2cccc(OCc3cn(Cc4nc5ccccc5s4)nn3)c2)c1", 1),
    ("O=S(=O)(/C=C/c1cccc(Cl)c1)Nc1cccc(OCc2cn(Cc3ccsc3)nn2)c1", 0.95),
    ("O=[N+]([O-])c1cccc(/C=C/S(=O)(=O)Nc2cccc(OCc3cn(Cc4cccnc4)nn3)c2)c1", 1),
    ("O=S(=O)(/C=C/c1cccc(Cl)c1)Nc1cccc(OCc2cn(Cc3ccsc3Br)nn2)c1", 0.98),
    ("COc1cccc(/C=C/S(=O)(=O)Nc2cccc(-c3nnn(Cc4cccc(Cl)c4)n3)c2)c1", 1),
    ("O=S(=O)(/C=C/c1cccc(F)c1)Nc1cccc(OCc2cn(Cc3cc4ccccc4s3)nn2)c1", 0.95),
]

Ratio lookup needed for CS(=O)(=O)Nc1cccc(-c2nnn(Cc3cccc(Cl)c3)n2)c1 , thanks.
0.97

Ratio lookup needed for O=S(=O)(/C=C/c1cccc(Cl)c1)Nc1cccc(OCc2cn(Cc3cccc(Cl)c3)nn2)c1 , thanks.
0.95

Ratio lookup needed for O=S(=O)(/C=C/c1cccc(Cl)c1)Nc1cccc(OCc2cn(Cc3ccccc3)nn2)c1 , thanks.
0.97

Ratio lookup needed for O=S(=O)(/C=C/c1cccc(C(F)(F)F)c1)Nc1cccc(-c2nnn(Cc3cccc(Cl)c3)n2)c1 , thanks.
1

Ratio lookup needed for O=S(=O)(/C=C/c1cccc(F)c1)Nc1cccc(OCc2cn(Cc3cccnc3)nn2)c1 , thanks.
1

Ratio lookup needed for O=S(=O)(/C=C/c1cccc(C(F)(F)F)c1)Nc1cccc(OCc2cn(Cc3cccnc3)nn2)c1 , thanks.
0.96

Ratio lookup needed for O=[N+]([O-])c1cccc(/C=C/S(=O)(=O)Nc2cccc(OCc3cn(Cc4cc5ccccc5s4)nn3)c2)c1 , thanks.
1

Ratio lookup needed for O=S(=O)(/C=C/c1cccc(Br)c1)Nc1cccc(-c2nnn(Cc3cccc(Cl)c3)n2)c1 , thanks.
1
